These measurements were taken from patent US20060069132A1.

I'd be grateful if you could share measured Plant response rating, Bermudagrass for these entries.
System: bermudagrass
assay.protocol: Test C pre-/postemergence herbicide test
Type: in vivo, Cynodon dactylon
run.parameters: 125 g ai/ha; scale 0 (no effect) to 100 (complete control); visual, 12 to 14 days; preemergence
Field format: numeric only.

Task: Give me measured Plant response rating, Bermudagrass, please, for this molecule: CCCCOc1cccc(NC(=O)c2cc(C(C)(C)C)nn2CC)c1
Output: 100

Task: Entry CCOC(=O)c1cc(NC(=O)c2cc(C(C)(C)C)nn2CC)ccc1OCC needs its Plant response rating, Bermudagrass filled in; supply it.
Output: 100

Task: Please give the documented Plant response rating, Bermudagrass of CC(=O)c1cccc(NC(=O)c2cc(C(C)(C)C)nn2CCF)c1
Output: 100

Task: Specify measured Plant response rating, Bermudagrass for C#CCNC(=O)c1cccc(NC(=O)c2cc(C(C)(C)C)nn2CC)n1 .
Output: 70

Task: Consider the molecule CCn1nc(C(C)(C)C)cc1C(=O)Nc1cc(C(=O)N(C)OC)ccc1F and give its recorded Plant response rating, Bermudagrass.
Output: 100

Task: Dear colleague, please send me the reported Plant response rating, Bermudagrass for CCn1nc(C(C)(C)C)cc1C(=O)Nc1ccc(OC)c(OC)c1 when you can.
Output: 55

Task: Using the record for CCN1N=C(C(C)(C)C)CC1C(=O)Nc1cc(C(=O)N2CC=CC2)ccc1F (racemic) , state its measured Plant response rating, Bermudagrass.
Output: 85

Task: Identify the reported Plant response rating, Bermudagrass for the following entry. CCNC(=O)c1ccc(F)c(NC(=O)c2cc(C3(C)CC3)nn2CC)c1
Output: 100
